Parameter Growth Rate: see the listing below.
System: HEK-293T
procedure summary: Incucyte cell viability with HEK293T; note: unitless GR value; below 1 slowed growth and below 0 cell loss
Type: toxicity, cell-based
test context: human, 18 h, 10 µM, compound concentration 10 uM, replicate number 2, timepoint 18 hours

compound	Growth Rate
C[N+]1(C)[C@@H]2C[C@@H](OC(=O)C(O)(c3cccs3)c3cccs3)C[C@H]1[C@@H]1O[C@@H]12.O.[Br-] [TIOTROPIUM BROMIDE]	0.99
CC[S+]([O-])c1nc(-c2cccc(OCc3ccccc3)c2)cc(C(F)(F)F)n1 (centres undefined)	-0.43
Cc1ccccc1N1CCN(S(=O)(=O)C[C@]23CC[C@H](C[C@@H]2NC(=O)[C@@H](N)CCS(C)(=O)=O)C3(C)C)CC1.Cl	0.92
O=C(O)c1nc2ccccc2c2[nH]c3c(I)cccc3c12	0.78

====

Test system: U2OS
procedure summary: Incucyte cell viability with U2OS; note: unitless GR value; below 1 slowed growth and below 0 cell loss
Type: toxicity, cell-based
test context: human, 6 h, 10 µM, compound concentration 10 uM, replicate number 2, timepoint 6 hours
Would you mind labelling by Growth Rate? At or over 0.6 is T, under is F.

compound	label class
COc1cc2nc(N(C)CCCNC(=O)C3CCCO3)nc(N)c2cc1OC.Cl (stereo not given) [ALFUZOSIN HYDROCHLORIDE]	T
C[N+]1(C)[C@@H]2C[C@@H](OC(=O)C(O)(c3cccs3)c3cccs3)C[C@H]1[C@@H]1O[C@@H]12.O.[Br-] [TIOTROPIUM BROMIDE]	T
CCCCCCCCc1ccc(CC[C@](N)(CO)COP(=O)(O)O)cc1 [FTY720-P]	F
Cc1ccc(F)cc1C(=O)Nc1ccc(C(=O)N2Cc3cccn3Cc3ccccc32)c(Cl)c1 [LIXIVAPTAN]	T
CNC(=O)[C@H]1O[C@@H](n2cnc3c(NCc4cccc(I)c4)ncnc32)[C@H](O)[C@@H]1O [IB-MECA]	T
CC(=O)c1ccc2c(c1)[C@@H]1C=CC[C@@H]1[C@H](c1cc3c(cc1Br)OCO3)N2	F
Cc1noc(C)c1-c1cnc2c(-c3ccc(C(=O)O)cc3)cn([C@@H](C)c3ccccn3)c2c1 [PLX-51107]	T
NC(=O)c1cc2c(-c3ccc(C(=O)NCc4ccnc(Cl)c4)s3)cccc2s1	F
C[C@H](N)Cn1ccc2cc(F)c(Cl)cc21.O=C(O)/C=C/C(=O)O	T
COc1ccccc1N1CCN(CCCCNC(=O)c2ccc3ccccc3c2)CC1.Cl	T
COCCCN1CCC(NC(=O)c2cc(Cl)c(N)c3c2OCC3)CC1 [PRUCALOPRIDE]	T
CC(C)c1cc(-c2ccc(F)c3ccccc23)nc(N)n1	T
CCC(=O)N1CC[C@H](Nc2ncnc3c2CN(c2cnc(OC)c(C(F)(F)F)c2)CC3)C1 [LENIOLISIB]	T
CC(C)Oc1ccc(Cc2ccc(NC3=NCCN3)cc2)cc1	F
O=C(O)c1cc2ccccc2c(Cc2c(O)c(C(=O)O)cc3ccccc23)c1O [PAMOIC ACID]	T
CN(C(=O)c1ccccc1)c1cc(N(C)c2ccc3c(c2)CCc2ccc(C(=O)NCCN4CCOCC4)cc2C3=O)ccc1F [FM-743]	T
CC(=O)c1cc(-c2ccccc2OCC2CC2)c2ncccn12	T
Cc1cc(CN)cc(C)c1-c1ncn(C)c1-c1cncn1C	T
O=C(Nc1cc(-c2ccccc2)nn1-c1ccccc1F)c1ccc([N+](=O)[O-])cc1	F
Cl.O=C(O)c1cc(-c2ccc(C3CCNCC3)cc2)c2ccc(-c3ccc(C(F)(F)F)cc3)cc2c1	T
CCCCC[C@H](O)/C=C/[C@H]1[C@H](O)CC(=O)[C@@H]1CCCCCCC(=O)O [ALPROSTADIL]	T
CC(=O)NCCc1c(Cc2ccccc2)[nH]c2ccccc12 [LUZINDOLE]	T
Cc1ccc(OCC(O)C(C)NC(C)C)c2c1CCC2.Cl (stereo not given)	T
Cc1onc(-c2ccccc2Cl)c1C(=O)N(C)c1ccc(Cl)cc1	F
CNC(=O)c1nn(C)c2c1C(C)(C)Cc1cnc(Nc3ccc(N4CCN(C)CC4)cc3)nc1-2 [MILCICLIB]	F
Cc1nc(C#Cc2cccnc2)cs1.Cl	T
O=C(NCc1ccc(F)cc1)N1CCN2C(=O)OC(c3ccccc3)(c3ccccc3)C2C1 (stereo not given)	T
CN1CCN(c2ccc(Nc3c4ccccc4nc4ccccc34)cc2)CC1.Cl.Cl.O	F
CN(C)CCN(Cc1ccc(-c2ccc(CNCCc3ccccc3)cc2)cc1)C(=O)CCC1CCCC1.Cl.Cl	F
